These entries and their values trace back to patent EP2975030B1.

# System: rat small-intestinal brush border membrane vesicles
# assaySummary: Inhibitory effect on 33PO4 uptake into rat small-intestinal brush border membrane vesicles (rapid filtration method)
# Assay type: biochemical, Wistar female rat
# cond: 1 µM test compound; 33PO4 uptake into rat small-intestinal BBMVs, 60 seconds
Documented Rate of uptake inhibition (%) (1 µM) across a set of compounds
Answer format: numeric, % implied, no suffix.

molsmiles=CN1N(Cc2ccc(OCCCCC(=O)O)c(F)c2F)C(=O)C(C(=O)Nc2ccc(C(F)(F)F)cc2-c2cc(C(F)(F)F)ncn2)=C(O)C12CCCC2 valueobserved=29
molsmiles=C[C@]12CCCN1N(Cc1ccc(OCCN3CCOCC3)c(F)c1F)C(=O)C(C(=O)Nc1ccc(C(F)(F)F)nc1-c1cncc(C(F)(F)F)c1)=C2O valueobserved=79

Return reported Rate of uptake inhibition (%) (1 µM); argument: C[C@]12CCCN1N(Cc1ccc(CCCOCCCO)c(F)c1F)C(=O)C(C(=O)Nc1ccc(C(F)(F)F)cc1-c1ccc(C(F)(F)F)nc1)=C2O
83

Item under review: CN1[C@@H](C(C)(C)C)C(O)=C(C(=O)Nc2ccc(C(F)(F)F)cc2-c2ccc(C(F)(F)F)nc2)C(=O)N1Cc1ccc(OCCN2CCOCC2)c(F)c1F . Reported Rate of uptake inhibition (%) (1 µM)?
62

Name the reported Rate of uptake inhibition (%) (1 µM) value associated with the compound C[C@]12CCCN1N(Cc1c(F)cc(OCCCCCOC[C@@H](O)CO)cc1F)C(=O)C(C(=O)Nc1ccc(C(F)(F)F)cc1-c1ccc(C(F)(F)F)nc1)=C2O
73

What value of Rate of uptake inhibition (%) (1 µM) has been recorded for this entry: Cc1c(-c2cc(C(F)(F)F)ccc2NC(=O)C2=C(O)C3(CCCC3)N(C)N(Cc3ccc(OCCN4CCOCC4)c(F)c3F)C2=O)ncnc1C(F)(F)F
59

====

# System: rat small-intestinal brush border membrane vesicles
# assaySummary: Inhibitory effect on 33PO4 uptake into rat small-intestinal brush border membrane vesicles (rapid filtration method)
# Assay type: biochemical, Wistar female rat
# cond: 1 µM test compound; 33PO4 uptake into rat small-intestinal BBMVs, 60 seconds
testReadout: Rate of uptake inhibition (%) (1 µM)
Just the number please, in %, no unit attached.

In the examples that follow, each entry is paired with its recorded Rate of uptake inhibition (%) (1 µM).
molsmiles=C[C@]12CCCN1N(Cc1cccc(F)c1F)C(=O)C(C(=O)Nc1ccc(Cl)cn1)=C2O valueobserved=71
molsmiles=COCCN(C)CCOCCOCCOc1ccc(CN2C(=O)C(C(=O)Nc3ccc(C(F)(F)F)cc3-c3cc(C(F)(F)F)ncn3)=C(O)C3(CCCC3)N2C)c(F)c1F valueobserved=29
molsmiles=Cc1cc(NC(=O)C2=C(O)[C@@H]3CCCCN3N(Cc3cccc(F)c3)C2=O)c(C(F)(F)F)o1 valueobserved=38

Moving on to another molecule below.
Any idea what Rate of uptake inhibition (%) (1 µM) was measured for C[C@]12CCCN1N(Cc1cc(F)c(F)c(F)c1)C(=O)C(C(=O)Nc1cc(F)c(Br)c(F)c1)=C2O ?
82

====

# Tested on: rat small-intestinal brush border membrane vesicles
# assaySummary: Inhibitory effect on 33PO4 uptake into rat small-intestinal brush border membrane vesicles (rapid filtration method)
# Type: biochemical, Wistar female rat
# cond: 1 µM test compound; 33PO4 uptake into rat small-intestinal BBMVs, 60 seconds
testReadout: Rate of uptake inhibition (%) (1 µM)
# value in %; strip the unit string

molecule="CN1[C@@H](C(C)(C)C)C(O)=C(C(=O)Nc2ccc(Cl)cc2-c2cc(C(F)(F)F)ncn2)C(=O)N1Cc1cccc(F)c1F [Example 237]" testreadout="Rate of uptake inhibition (%) (1 µM)" valueobserved=51

Request the reported Rate of uptake inhibition (%) (1 µM) associated with CCN(CCN(C)CCOC)c1ccc(CN2C(=O)C(C(=O)Nc3ccc(C(F)(F)F)cc3-c3cc(C(F)(F)F)ncn3)=C(O)C3(CCCC3)N2C)c(F)c1F [Example 443]
28

Would you kindly share the measured Rate of uptake inhibition (%) (1 µM) for COc1cccc(-c2cc(C(F)(F)F)ccc2NC(=O)C2=C(O)[C@@]3(C)CCCN3N(Cc3ccc(C#CCOCCOCCO)c(F)c3F)C2=O)c1OC [Example 139] ?
88

What does the data say about its Rate of uptake inhibition (%) (1 µM)? Entry: C[C@]12CCCN1N(Cc1ccc(Cl)cc1)C(=O)C(C(=O)Nc1ccc(C(F)(F)F)cc1-c1cc(C(F)(F)F)ncn1)=C2O [Example 182]
86

Reported Rate of uptake inhibition (%) (1 µM) for CN(CCOCCOc1ccc(CN2C(=O)C(C(=O)Nc3ccc(C(F)(F)F)cc3-c3cc(C(F)(F)F)ncn3)=C(O)C3(CCCC3)N2C)c(F)c1F)C[C@H](O)[C@@H](O)[C@H](O)[C@H](O)CO [Example 420] : what is it?
19

Can you look up the measured Rate of uptake inhibition (%) (1 µM) of COc1cccc(-c2cc(C(F)(F)F)ccc2NC(=O)C2=C(O)[C@@]3(C)CCCN3N(Cc3ccc(C#CCOCCO)c(F)c3F)C2=O)c1OC [Example 137] for me?
92
